MEASURED TARGET: Phosphatidylinositol 4,5-bisphosphate 3-kinase catalytic subunit delta isoform (Homo sapiens, UniProt O00329)
Sequence (O00329 whole entry): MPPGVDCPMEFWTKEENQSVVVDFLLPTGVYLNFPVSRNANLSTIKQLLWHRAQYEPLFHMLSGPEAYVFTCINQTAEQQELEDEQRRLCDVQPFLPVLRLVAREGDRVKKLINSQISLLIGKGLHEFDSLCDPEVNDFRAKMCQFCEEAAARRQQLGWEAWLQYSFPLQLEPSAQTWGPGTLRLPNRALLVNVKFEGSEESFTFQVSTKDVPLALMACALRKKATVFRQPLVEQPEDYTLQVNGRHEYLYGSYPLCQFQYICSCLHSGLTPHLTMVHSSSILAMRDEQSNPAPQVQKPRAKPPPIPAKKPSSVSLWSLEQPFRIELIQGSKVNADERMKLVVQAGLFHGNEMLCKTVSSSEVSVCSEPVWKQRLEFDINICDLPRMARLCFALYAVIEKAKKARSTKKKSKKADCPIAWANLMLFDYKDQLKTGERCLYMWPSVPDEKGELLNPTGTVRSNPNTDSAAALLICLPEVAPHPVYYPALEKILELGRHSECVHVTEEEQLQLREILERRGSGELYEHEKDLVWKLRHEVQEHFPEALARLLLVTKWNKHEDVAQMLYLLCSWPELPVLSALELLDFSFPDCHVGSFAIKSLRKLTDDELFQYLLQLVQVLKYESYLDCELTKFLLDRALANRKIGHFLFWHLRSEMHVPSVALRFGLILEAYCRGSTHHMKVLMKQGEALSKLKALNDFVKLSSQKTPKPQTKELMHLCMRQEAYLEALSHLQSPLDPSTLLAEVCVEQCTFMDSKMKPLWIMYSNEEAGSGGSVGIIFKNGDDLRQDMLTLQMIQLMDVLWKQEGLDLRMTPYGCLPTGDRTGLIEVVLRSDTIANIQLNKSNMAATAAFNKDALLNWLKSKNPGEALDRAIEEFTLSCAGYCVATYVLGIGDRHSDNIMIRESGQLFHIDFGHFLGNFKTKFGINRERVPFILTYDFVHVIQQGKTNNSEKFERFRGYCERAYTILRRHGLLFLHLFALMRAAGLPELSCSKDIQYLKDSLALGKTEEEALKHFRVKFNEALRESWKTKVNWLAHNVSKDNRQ
ASSAY SUMMARY: Inhibition of PI3Kdelta (unknown origin)
Please respond with reported pIC50 for every item in the list.
Lab note: report pIC50 as minus log10 of the concentration in molar units, number only.

Prompt: pIC50 for "N#Cc1c(N)ncnc1N1[C@H](c2nc3cccc(Cl)c3c(=O)n2-c2cccc(F)c2)C[C@@H]2CCCC[C@@H]21" ?
Response: 7.47

Prompt: pIC50 for "C=CCO[C@@H]1C[C@@H](c2nc3cccc(Cl)c3c(=O)n2-c2ccccc2)N(c2ncnc(N)c2C#N)C1" ?
Response: 7.17

Prompt: pIC50 for "C[C@H]1CC[C@@H](c2nc3cccc(Cl)c3c(=O)n2-c2ccccc2)N1c1ncnc(N)c1C#N" ?
Response: 8.30

Prompt: pIC50 for "C[C@H]1CC[C@@H](c2nc3cccc(Cl)c3c(=O)n2-c2cccc(F)c2)N1c1ncnc2[nH]cnc12" ?
Response: 7.85

Prompt: pIC50 for "N#Cc1c(N)ncnc1N1[C@H](c2nc3cccc(Cl)c3c(=O)n2N2CCOCC2)C[C@@H]2CCCC[C@@H]21" ?
Response: 7.85

Prompt: pIC50 for "N#Cc1c(N)ncnc1N1[C@H](c2nc3cccc(Cl)c3c(=O)n2-c2cccnc2)C[C@@H]2CCCC[C@@H]21" ?
Response: 7.30

Prompt: pIC50 for "N#Cc1c(N)ncnc1N1CC2(CC2)C[C@H]1c1nc2cccc(Cl)c2c(=O)n1-c1ccccc1" ?
Response: 7.70

Prompt: pIC50 for "N#Cc1c(N)ncnc1N1CC(F)(F)C[C@H]1c1nc2cccc(Cl)c2c(=O)n1-c1ccccc1" ?
Response: 7.48

Prompt: pIC50 for "C[C@H]1CC[C@@H](c2nc3cccc(Cl)c3c(=O)n2-c2cccc(F)c2)N1c1nc(N)nc2[nH]cnc12" ?
Response: 8.05

Prompt: pIC50 for "C[C@H]1CC[C@@H](c2nc3cccc(Cl)c3c(=O)n2N2CCOCC2)N1c1ncnc(N)c1C#N" ?
Response: 8.00

Prompt: pIC50 for "N#Cc1c(N)ncnc1N1[C@H](c2nc3cccc(F)c3c(=O)n2-c2cc(F)cc(F)c2)C[C@@H]2CCCC[C@@H]21" ?
Response: 6.52

Prompt: pIC50 for "C[C@H]1CC[C@@H](c2nc3cccc(Cl)c3c(=O)n2-c2cccc(F)c2)N1c1ncnc2[nH]ccc12" ?
Response: 7.52

Prompt: pIC50 for "N#Cc1c(N)ncnc1N1[C@H](c2nc3cccc(Cl)c3c(=O)n2-c2ccccc2)C[C@@H]2CCCC[C@@H]21" ?
Response: 7.05

Prompt: pIC50 for "C[C@H]1CC[C@@H](c2nc3cccc(Cl)c3c(=O)n2-c2ccccc2)N1c1nc(N)nc2[nH]cnc12" ?
Response: 7.60

Prompt: pIC50 for "C=C1C[C@@H](c2nc3cccc(Cl)c3c(=O)n2-c2ccccc2)N(c2ncnc(N)c2C#N)C1" ?
Response: 8.52

Prompt: pIC50 for "C[C@H]1CC[C@@H](c2nc3cccc(Cl)c3c(=O)n2-c2cccnc2)N1c1ncnc(N)c1C#N" ?
Response: 8.40

Prompt: pIC50 for "C[C@H]1CC[C@@H](c2nc3cccc(Cl)c3c(=O)n2-c2cccc(F)c2)N1c1ncnc(N)c1C#N" ?
Response: 8.52

Prompt: pIC50 for "N#Cc1c(N)ncnc1N1[C@H](c2nc3cccc(Cl)c3c(=O)n2-c2cc(F)cc(F)c2)C[C@@H]2CCCC[C@@H]21" ?
Response: 6.85
